Please provide measured growth for the entries that follow.
# System: MDA-MB-468 breast
# test: NCI-60 one-dose screen, 48 h (100 = growth as untreated, 0 = no growth, -100 = all killed)
# condition.context: 10 µM unless noted
# Procedure: Growth inhibition of the MDA-MB-468 human Breast tumor cell line is measured as a screen for anti-cancer activity. Cells are grown in 96 well plates and exposed to the test compound for 48 hours. Compounds are tested at a single concentration, which is 10^-5 M for most compounds. The reported endpoint is percent growth (GI% or GIPRCNT), where numbers from 0 - 100% represent growth inhibition, and numbers from -100% - 0 represent cell death. […]
The panel holds about 83,000 compounds, 20% with a hit somewhere; the sample as a whole holds those more often.
One number for each entry, in %.

// solved cases for growth follow
{"compound": "COc1ccc(/C=C2\\N=C3Sc4cc(Cl)ccc4C(=O)N3C2=O)cc1", "system": "MDA-MB-468 breast", "measured.value": 113}
{"compound": "S=C(N/N=C/c1cc(Cl)cc(Cl)c1)NC12CC3CC(CC(C3)C1)C2", "system": "MDA-MB-468 breast", "measured.value": 104}

For each of the compounds below, state growth.
1. O=C1/C(=C2\SC(=S)N(C3CC3)C2=O)SC(=S)N1C1CC1
2. O=C1CCC(N2C(=O)c3cccc(NCCCC4CCN(CCNC(=O)c5cc6c(o5)C(=O)c5ccccc5C6=O)CC4)c3C2=O)C(=O)N1 (centres undefined)
3. COc1ccccc1N=Nc1c(O)ccc2cc(S(=O)(=O)O)ccc12

[88.7, -73.9, 111]

---

# Tested on: MDA-MB-468 breast
# test: NCI-60 one-dose screen, 48 h
# condition.context: 10 µM unless noted
Compounds without any hit were thinned out: in the full panel of roughly 83,000, 20% have a hit. Active and inactive are the calls of the source. Rule for the calls: active = growth percent below 10; inactive = the rest.
Choose one outcome from this list and give only that: yes (active), no (inactive)

Below are worked cases with known answers.
{"molecule": "Cc1cccc(C[C@H](NC(=O)Nc2ccc(Cl)cc2F)C(=O)N[C@@H]2C(=O)N3C[C@H](O)C[C@H]3C(=O)N3CCCC[C@H]3C(=O)N[C@@H](C)C(=O)N3C[C@H](C)C[C@H]3C(=O)O[C@H]2C)c1", "assigned.label": "yes"}
{"molecule": "O=C(N/N=C/[C@H](O)[C@@H](O)[C@@H](O)[C@H](O)CO)c1ccc(NC(=O)c2cccnc2)cc1", "assigned.label": "no"}

For `CCCCCCCCSC1=CC(=O)C(OC)=C(OC)C1=O` , what call appears in the results of this test?
yes

For `Clc1ccc2[nH]cc(-c3nn4cc(-c5cccnc5)nc4s3)c2c1` , what call appears in the results of this test?
no

For `CCCCn1c(-c2ccc(C(=O)O/N=C(\N)c3ccc4c(c3)OCO4)cc2)nc(-c2ccccc2)c1-c1ccccc1` , what call appears in the results of this test?
no

For `CN1CCN(c2nc(Nc3ccc(O)cc3)nc3ccccc23)CC1` , what call appears in the results of this test?
no

For `O=c1c2ccccc2c(Br)c(Br)c2ccccc12` , what call appears in the results of this test?
yes

For `COc1cc(OC)c(/C=C/S(=O)(=O)Cc2ccc(OC)c(NCC(=O)O)c2)c(OC)c1` , what call appears in the results of this test?
yes

For `C=C1CC[C@@H]2C(C)(C)[C@@H](O)CC[C@@]2(C)[C@@H]1COc1ccc2ccc(=O)oc2c1` , what call appears in the results of this test?
no

For `CCCCCc1ccc(C)cc1OC(=O)CCl` , what call appears in the results of this test?
no

For COC[C@@H](C)n1c(C2CCOCC2)nc2c1C1C=C(OC)C(c3c(C)noc3C)=CC1N=C2 (stereo not given in full) , what call appears in the results of this test?
no

For `C=C(C)[C@@H]1CC[C@]2(C(N)=O)CC[C@]3(C)[C@H](CC[C@@H]4[C@@]5(C)CC[C@H](OCCC#N)C(C)(C)[C@@H]5CC[C@]43C)[C@@H]12` , what call appears in the results of this test?
no

For `COC(=O)CCCCCn1c2ccccc2c2c3c(c4c5ccccc5[nH]c4c21)C(=O)N(O)C3=O` , what call appears in the results of this test?
no

For `CN1CCN(CCCOC(=O)c2c3c(n4ccccc24)C(=O)c2ncccc2C3=O)CC1` , what call appears in the results of this test?
no

---

# Tested on: MDA-MB-468 breast
# test: NCI-60 one-dose screen, 48 h (100 = growth as untreated, 0 = no growth, -100 = all killed)
# condition.context: 10 µM unless noted
This is part of a sample that, as a whole, favours compounds with a hit. Of some 83,000 tested, about 20% had one in any assay.
recorded.endpoint: growth (%)
Give bare numbers, in %.

// solved cases for growth follow
{"molecule": "O=C1/C(=C/c2ccc([N+](=O)[O-])s2)Oc2ccc(Br)cc21", "recorded.endpoint": "growth", "measured.value": -40.2}
{"molecule": "CCOC(=O)C(C)C(C)(O)c1ccccc1 (stereo unspecified)", "recorded.endpoint": "growth", "measured.value": 96.3}

For each of the molecules below, state growth.
1. COc1ccc2nc3cc(Cl)ccc3c(N3CCN(c4ccnc(N5CCOCC5)n4)CC3)c2c1
2. O=C(CCN1CCOCC1)Nc1ccc(Cn2nnc3c2C(=O)c2nnn(Cc4ccc(NC(=O)CCN5CCOCC5)cc4)c2C3=O)cc1
3. C/C(Cc1ccccc1)=N\O
4. COc1cc(/C=C2/C(=O)Nc3ccc(Cl)cc32)ccc1OCc1ccc(Cl)cc1

-54.8
-72.2
106
87.2

For each of the molecules below, state growth.
1. O=C(O[C@@H]1Cc2c(O)cc(O)cc2O[C@@H]1c1cc(O)c(O)c(O)c1)c1cc(O)c2c(c1)OCO2
2. CCOc1cc2ncc(C#N)c(Nc3ccc(F)c(Cl)c3)c2cc1NC(=O)/C=C/CN(C)C

[109, -43.9]

For each of the molecules below, state growth.
1. CCOc1ccc(NC(=O)Nc2ccc(OCC)cc2)cc1
2. Cc1ncc(-c2ccoc2)c(NC2CCCCCC2)n1

[106, 105]

For each of the molecules below, state growth.
1. Oc1ccc(-c2[nH]c3ccccc3c2-c2nc3ccccc3o2)cc1
2. CCCN=C(N)c1ccc(NC(=O)c2ccc(C(=O)Nc3ccc(C(N)=NCCC)cc3)cc2)cc1
3. CN(C)S(=O)(=O)c1ccc(-c2nc(C(Cl)Cl)nc3cc(-c4ccc(F)cc4)nn23)cc1
4. O=C(COc1ccc(/C=C2\C(=O)Nc3cc(Cl)ccc32)cc1)Nc1ccc(Cl)cc1
5. CCC(C)(C)c1ccc(OCCCCCCN2CCN(c3ccc(C)c(Cl)c3)CC2)cc1

26.1
67.1
-46.2
86.8
47.1

For each of the molecules below, state growth.
1. COC(=O)c1ccc2[nH]c(O)c(C(=Nc3ccc(N(C)C(=O)CN4CCN(C)CC4)cc3)c3ccc([N+](=O)[O-])cc3)c2c1
2. C/C(=N/N=C(N)N)c1ccc(N)cc1

[85.9, 75.5]

For each of the molecules below, state growth.
1. CCOC(=O)CNC
2. CCOP(C)(=O)/C(Cc1ccc(OC)c(OC)c1)=N\O (stereo unspecified)
3. Nc1n[nH]c2cc(F)c([C@@H]3Nc4ccc5[nH]ncc5c4[C@H]4C5CCC(C5)[C@@H]34)cc12 (stereo partly specified)
4. C#Cc1cccc(Nc2ncnc3cc(OC)c(OCCCCCCC(=O)NO)cc23)c1

[101, 96.5, -11.7, -44.4]

---

# Tested on: MDA-MB-468 breast
# test: NCI-60 one-dose screen, 48 h
# condition.context: 10 µM unless noted
About 83,000 compounds went through this panel and 20% of them were active in at least one assay; those are over-represented in the sample as a whole. Calls of active or inactive are those of the source. The calls were made as follows: active = growth percent below 10; inactive = the rest.
Choose one outcome from this list and give only that: yes (1) = active, no (0) = inactive

For CCN1C(=O)N(CC)C2C1NC(=S)N2/N=C/c1ccc(OC)cc1 (centres undefined) , what call appears in the results of this test?
no (0)

For `CNC(=O)Cc1nc(-c2cccc(NS(=O)(=O)c3c(F)cccc3F)c2F)c(-c2ccnc(Nc3ccccc3)n2)s1` , what call appears in the results of this test?
no (0)

For `Cn1cc(-c2nnc(N)nc2-c2c[nH]c3ccc(F)cc23)c2cc(Br)cnc21` , what call appears in the results of this test?
no (0)

For `N#Cc1c(-c2ccccc2)[nH]c2ncc(-c3ccccc3)n2c1=O` , what call appears in the results of this test?
no (0)

For `N#CSc1c[nH]c2ccc(/C=C/C(=O)/C=C(O)/C=C/c3ccc4[nH]cc(SC#N)c4c3)cc12` , what call appears in the results of this test?
yes (1)

For CC(Cl)(CCl)CS(=O)(=O)c1ccc(Cl)cc1 (centres undefined) , what call appears in the results of this test?
no (0)

For `CCCCCCCCCc1cc(CN2CCCCC2)c(O)c(CN2CCCCC2)c1` , what call appears in the results of this test?
no (0)

For `O=C1NC(=S)NC(=O)C1CC(=O)n1c(-c2ccccc2)nc2ccccc21` , what call appears in the results of this test?
no (0)

For `COc1cc2c3c(n([C@@H]4CCOC4)c(=O)c2cc1OC)-c1cc2c(cc1C3=O)OCO2` , what call appears in the results of this test?
no (0)

For `O=C(CCn1cnc2c(cc(-c3ccccc3)n2-c2ccccc2)c1=O)Nc1ccc(F)cc1` , what call appears in the results of this test?
no (0)

For `COc1cc2c3c(c1)nc(C)n3CCC2` , what call appears in the results of this test?
no (0)

For `C[C@@H]1CC[C@@H]2[C@@H]1[C@H](OC(=O)/C=C/c1ccccc1)[C@]1(C3CCCCC3)C[C@@H](OC(=O)CO)[C@@]2(C)O1` , what call appears in the results of this test?
no (0)

For `O=C(NNc1nc2cc(F)cc(F)c2n2cccc12)c1ccncn1` , what call appears in the results of this test?
yes (1)

Data credit: PubChem BioAssay (NCI)
